# Test system: E. coli TESEC Mtb DapB
# assayProtocol: growth (OD600 after 10 h); higher = more growth (less inhibition)
# testContext: arabinose induction (level): High; compound 0.1 mM; raw OD600 reference: median of DMSO wells […], cell-free background 0.041
Structures can show the parent of a compound that is named as a salt.
Give measured growth for each item. Keep answers brief.
Answer using only a numeral; do not append any unit.

Sample Cc1[nH]cnc1CN1CCc2c(c3ccccc3n2C)C1=O [Alosetron hydrochloride] — what was its growth?
0.196

CCCCc1ccc2[nH]c(NC(=O)OC)nc2c1 ?
0.208

COc1ccc2[nH]c([S+]([O-])Cc3ncc(C)c(OC)c3C)nc2c1 (configuration not stated) ?
0.167

CCOC(=O)OC(C)OC1=C(C(=O)Nc2ccccn2)N(C)S(=O)(=O)c2ccccc21 (configuration not stated) ?
0.206

Nc1nc(=O)[nH]cc1F ?
0.21

C=C1C[C@H]2[C@@H]3C=C(C)C4=CC(=O)CC[C@]4(C)[C@H]3CC[C@]2(C)[C@@]1(OC(C)=O)C(C)=O [Melengestrol acetate] ?
0.187

O=C(OCCOCCO)c1ccccc1Nc1cccc(C(F)(F)F)c1 [Etofenamate] ?
0.0997

CCCCc1nc(Cl)c(CO)n1Cc1ccc(-c2ccccc2-c2nnn[nH]2)cc1 ?
0.195

Cc1cc(C(C)(C)C)cc(C)c1CC1=NCCN1 [Xylometazoline hydrochloride] ?
0.173

CCSc1ccc2c(c1)N(CCCN1CCN(C)CC1)c1ccccc1S2 [Thiethylperazine dimalate] ?
0.0474

Nc1ncn(C2OC(CO)C(O)C2O)c(=O)n1 (configuration not stated) ?
0.199

CCC(=O)O[C@@H](O[P@](=O)(CCCCc1ccccc1)CC(=O)N1C[C@H](C2CCCCC2)C[C@H]1C(=O)O)C(C)C ?
0.165

C[C@H]1C[C@H]2[C@@H]3CCC4=CC(=O)C=C[C@]4(C)[C@@]3(F)[C@@H](O)C[C@]2(C)[C@@]1(O)C(=O)CO ?
0.198

Cn1ccnc1S ?
0.2

Cc1ccccc1N1C(=O)c2cc(S(N)(=O)=O)c(Cl)cc2NC1C (configuration not stated) ?
0.199

NCc1ccc(S(N)(=O)=O)cc1 [Mafenide hydrochloride] ?
0.199

CN(C)[C@@H]1C(=O)C(C(N)=O)=C(O)[C@@]2(O)C(=O)C3=C(O)c4c(O)ccc(Cl)c4[C@@H](O)[C@H]3C[C@@H]12 [Demeclocycline hydrochloride] ?
0.0577

----------
Give measured growth for each item. Keep answers brief.
# Test system: E. coli TESEC Mtb DapB
# assayProtocol: growth (OD600 after 10 h); higher = more growth (less inhibition)
# testContext: arabinose induction (level): Low; compound 0.1 mM; raw OD600 reference: median of DMSO wells 0.227, cell-free background 0.041
Structures can show the parent of a compound that is named as a salt.
Answer using only a numeral; do not append any unit.

Sample COc1cccc2c1C(=O)c1c(O)c3c(c(O)c1C2=O)C[C@@](O)(C(C)=O)C[C@@H]3O[C@H]1C[C@H](N)[C@H](O)[C@H](C)O1 [Daunorubicin hydrochloride] — what was its growth?
0.0519

CN(C)CCCN1c2ccccc2CCc2ccc(Cl)cc21 [Clomipramine hydrochloride] ?
0.0467

O=C(COc1ccc(Cl)cc1)N1CCN(Cc2ccc3c(c2)OCO3)CC1 [Fipexide hydrochloride] ?
0.234

CC(C)C(=O)Nc1ccc([N+](=O)[O-])c(C(F)(F)F)c1 [Flutamide] ?
0.218
